# credit: paper PMC8900824

- system_name: AcAChBP (Aplysia californica, UniProt Q8WSF8, A155V/A60V)
- Construct: made in house; host or cells: Spodoptera frugiperda (Sf9) cells, baculovirus (Bac-to-Bac)
- Sequence (Q8WSF8 entry or part of it A60V/A155V): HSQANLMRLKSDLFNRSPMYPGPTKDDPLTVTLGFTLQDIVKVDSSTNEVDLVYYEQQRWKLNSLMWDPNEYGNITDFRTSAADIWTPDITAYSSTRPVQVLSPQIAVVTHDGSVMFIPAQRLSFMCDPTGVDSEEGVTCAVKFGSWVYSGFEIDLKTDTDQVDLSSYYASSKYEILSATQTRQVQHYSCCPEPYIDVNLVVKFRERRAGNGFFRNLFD
- assay_info: Kd determination by biolayer interferometry (BLI) on immobilized AcAChBP
- Format: binding
- assay_context: 25°C, values with standard errors
pKd: recorded values
Interpret pKd as the negative base-10 log of the concentration measured in mol/L.

Example results:
compound	system_name	observed
NC(=O)c1cc(-c2cc(C3CC4CCC3N4)cnc2F)ccn1 (centres unmarked)	AcAChBP (Aplysia californica, UniProt Q8WSF8, A155V/A60V)	8.01
NC(=O)c1ccc(-c2cc(C3CC4CCC3N4)cnc2F)cc1 (centres unmarked)	AcAChBP (Aplysia californica, UniProt Q8WSF8, A155V/A60V)	8.01
NC(=O)c1ccc(-c2cc(C3CC4CCC3N4)cnc2F)nc1 (centres unmarked)	AcAChBP (Aplysia californica, UniProt Q8WSF8, A155V/A60V)	7.54
NC(=O)c1ccnc(-c2cc(C3CC4CCC3N4)cnc2F)c1 (centres unmarked)	AcAChBP (Aplysia californica, UniProt Q8WSF8, A155V/A60V)	7.22

// moving on: another record for pKd
Entry NC(=O)c1ccc(-c2cc(C3CC4CCC3N4)cnc2F)cn1 (centres unmarked) has what pKd?
7.48
